TARGET ENTITY: UniProt:P47871
ASSAY INFO: Cellular functional assay, cAMP readout (glucagon-stimulated cAMP, LANCE TR-FRET)
ASSAY SETUP: HEK293 cells stably expressing full-length human GCGR; glucagon 100 pM; IC50 converted to Ki; read-out: Inhibition of cAMP Ki
OBSERVABLE: Ki (nM)

Cc1c(-c2ccc(C(F)(F)F)c(Cl)c2)ccc2nn(C(CC(C)C)c3ccc(C(=O)NCCC(=O)O)cc3)cc12 (stereo not shown) :: 70
CC(C)C[C@H](c1ccc(C(=O)NCCC(=O)O)cc1)n1ncc2cc(-c3ccc(C(F)(F)F)cc3Cl)ccc21 :: 1270
Cc1cc(C(F)(F)F)ccc1-c1cc2cn(C(CC(C)C)c3ccc(C(=O)NCCC(=O)O)cc3)nc2cc1C (stereo not shown) :: 19
COc1c(-c2ccc(Cl)cc2C)ccc2nn(C(CC(C)C)c3ccc(C(=O)NCCC(=O)O)cc3)cc12 (stereo not shown) :: 37
O=C(O)CCNC(=O)c1ccc(C(CCC(F)(F)C(F)(F)F)n2cc3cc(-c4ccc(C(F)(F)F)cc4)ccc3n2)cc1 (stereo not shown) :: 240

1. O=C(O)CCNC(=O)c1ccc(C(CCC(F)(F)F)n2ncc3cc(-c4cc(Cl)cc(Cl)c4)ccc32)cc1 (stereo not shown)
2. CCCC(c1ccc(C(=O)NCCC(=O)O)cc1)n1cc2cc(-c3ccc(C(F)(F)F)cc3)ccc2n1 (stereo not shown)
query: In the pair 1 and 2 , the larger recorded Ki belongs to which? Identify your selection by its label.
result: 1

###

TARGET ENTITY: human GCGR (Homo sapiens, UniProt P47871)
Sequence (P47871 26-477): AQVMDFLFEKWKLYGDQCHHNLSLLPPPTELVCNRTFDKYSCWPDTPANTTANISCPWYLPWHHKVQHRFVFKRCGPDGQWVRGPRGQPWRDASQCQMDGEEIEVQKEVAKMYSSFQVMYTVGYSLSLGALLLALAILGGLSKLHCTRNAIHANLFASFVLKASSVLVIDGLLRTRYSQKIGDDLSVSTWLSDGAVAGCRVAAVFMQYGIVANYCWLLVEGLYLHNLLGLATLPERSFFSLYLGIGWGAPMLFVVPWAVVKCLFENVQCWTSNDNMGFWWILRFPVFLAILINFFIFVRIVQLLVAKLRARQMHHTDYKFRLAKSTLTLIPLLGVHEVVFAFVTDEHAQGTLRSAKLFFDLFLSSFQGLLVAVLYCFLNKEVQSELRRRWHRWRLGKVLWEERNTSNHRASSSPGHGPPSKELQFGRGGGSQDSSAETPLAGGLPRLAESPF
ASSAY INFO: Cellular functional assay, cAMP readout (glucagon-stimulated cAMP, LANCE TR-FRET)
ASSAY SETUP: HEK293 cells stably expressing full-length human GCGR; glucagon 100 pM; IC50 converted to Ki; read-out: Inhibition of cAMP Ki
OBSERVABLE: Ki (nM)

Cc1c(-c2ccc(C(F)(F)F)cc2Cl)ccc2c1cnn2[C@@H](CC(C)C)c1ccc(C(=O)NCCC(=O)O)cc1 :: 42
Cc1cc(C(F)(F)F)ccc1-c1ccc2c(cnn2C(CC(C)C)c2ccc(C(=O)NCCC(=O)O)cc2)c1C (stereo not shown) :: 92
CC(C)(C)c1ccc(-c2ccc3c(cnn3C(CC3CCCCC3)c3ccc(C(=O)NCCC(=O)O)cc3)c2)cc1 (stereo not shown) :: 114
COc1c(-c2ccc(C(F)(F)F)cc2Cl)ccc2nn(C(CC(C)C)c3ccc(C(=O)NCCC(=O)O)cc3)cc12 (stereo not shown) :: 22
Cc1cc(C(F)(F)F)ccc1-c1cc2cnn(C(CC(C)C)c3ccc(C(=O)NCCC(=O)O)cc3)c2cc1Cl (stereo not shown) :: 105
Cc1cc(C(F)(F)F)ccc1-c1cc2cn(C(CC(C)C)c3ccc(C(=O)NCCC(=O)O)nc3)nc2cc1C (stereo not shown) :: 30

a. CC(C)CC(c1ccc(C(=O)NCCC(=O)O)nc1)n1ncc2cc(-c3ccc(C(F)(F)F)cc3Cl)ccc21 (stereo not shown)
b. CC(C)CC(c1ccc(C(=O)NCCC(=O)O)cc1)n1cc2cc(-c3cc4ccccc4o3)ccc2n1 (stereo not shown)
query: In the pair a and b , the larger recorded Ki belongs to which? Identify your selection by its label.
result: a
(a: 175 nM, b: 76 nM)

###

TARGET ENTITY: human GCGR (Homo sapiens, UniProt P47871)
Construct: expressed in transfected cells; host or cells: HEK293 (hGluc-1HEK), pcDNA3.1, G418 selection
ASSAY INFO: Cellular functional assay, cAMP readout (glucagon-stimulated cAMP, LANCE TR-FRET)
Type: cell-based
ASSAY SETUP: HEK293 cells stably expressing full-length human GCGR; glucagon 100 pM; IC50 converted to Ki; read-out: Inhibition of cAMP Ki
OBSERVABLE: Ki (nM)

Cc1cc(C(F)(F)F)ccc1-c1ccc2c(cnn2C(CCC(F)(F)F)c2ccc(C(=O)NCCC(=O)O)cc2)c1 (centres unmarked) :: 160
COc1c(-c2ccc(C(F)(F)F)cc2C)ccc2c1cnn2[C@@H](CC(C)C)c1ccc(C(=O)NCCC(=O)O)cc1 :: 22
CC(C)(C)CC(c1ccc(C(=O)NCCC(=O)O)nc1)n1cc2cc(-c3ccc(C(F)(F)F)cc3)ccc2n1 (centres unmarked) :: 90
CCCCCCC(c1ccc(C(=O)NCCC(=O)O)nc1)n1ncc2cc(-c3ccc(Cl)cc3C)ccc21 (centres unmarked) :: 200
O=C(O)CCNC(=O)c1ccc(C(CC2CCCCC2)n2cc3cc(-c4ccc(C(F)(F)F)cc4)ccc3n2)cn1 (centres unmarked) :: 200
Cc1cc(C(F)(F)F)ccc1-c1ccc2nn(C(CC(C)C)c3ccc(C(=O)NCCC(=O)O)cc3)cc2c1 (centres unmarked) :: 199
CC(C)CC(c1ccc(C(=O)NCCC(=O)O)cc1)n1cc2cc(-c3ccc4ncccc4c3)ccc2n1 (centres unmarked) :: 700
Cc1cc(C(F)(F)F)ccc1-c1cc2cnn([C@@H](CC(C)C)c3ccc(C(=O)NCCC(=O)O)cc3)c2cc1C :: 14

P. Cc1cc(-c2ccc(C(C)(C)C)cc2)cc2cn(C(CC(C)C)c3ccc(C(=O)NCCC(=O)O)nc3)nc12 (centres unmarked)
Q. COc1c(-c2ccc(C(F)(F)F)cc2Cl)ccc2nn([C@H](CC(C)C)c3ccc(C(=O)NCCC(=O)O)cc3)cc12
query: In the pair P and Q , the larger recorded Ki belongs to which? Identify your selection by its label.
result: P

A. COc1c(-c2ccc(C(F)(F)F)cc2C)ccc2nn(C(CC(C)C)c3ccc(C(=O)NCCC(=O)O)cc3)cc12 (centres unmarked)
B. CC(C)CC(c1ccc(C(=O)NCCC(=O)O)cc1)n1cc2cc(-c3ccc(C(C)(C)C)cc3)ccc2n1 (centres unmarked)
query: In the pair A and B , the larger recorded Ki belongs to which? Identify your selection by its label.
result: B

###

TARGET ENTITY: human GCGR (Homo sapiens)
ASSAY INFO: Cellular functional assay, cAMP readout (glucagon-stimulated cAMP, LANCE TR-FRET)
ASSAY SETUP: HEK293 cells stably expressing full-length human GCGR; glucagon 100 pM; IC50 converted to Ki; read-out: Inhibition of cAMP Ki
OBSERVABLE: Ki (nM)

I. COc1c(-c2ccc(C(F)(F)F)cc2C)ccc2c1cnn2[C@H](CC(C)C)c1ccc(C(=O)NCCC(=O)O)cc1
II. Cc1cc(C(F)(F)F)ccc1-c1ccc2c(cnn2C(CC(C)C)c2ccc(C(=O)NCCC(=O)O)cc2)c1Cl (stereo not shown)
III. O=C(O)CCNC(=O)c1ccc(C(c2ccc(C(F)(F)F)cc2)n2cc3cc(-c4ccc(C(F)(F)F)cc4)ccc3n2)cc1 (stereo not shown)
IV. COc1c(-c2ccc(C(F)(F)F)cc2Cl)ccc2nn(C(CC(C)C)c3ccc(C(=O)NCCC(=O)O)nc3)cc12 (stereo not shown)
query: Ascending by Ki, please. Arrange the labels as the request states and list them.
result: IV, II, III, I

###

System: GCG-mediated increases in blood glucose
ASSAY INFO: Glucagon challenge in vivo assay measuring blood glucose (normal dog glucagon challenge test)
ASSAY SETUP: 10 mg/kg oral gavage; fasted male beagle dogs; glucagon 5 μg/kg intramuscular 90 min after dosing
OBSERVABLE: inhibition of GCG-mediated increases in blood glucose vs vehicle (%)
The answer is to be given in %; state only the numeric part.

Cc1cc(C(F)(F)F)ccc1-c1cc2cn([C@@H](CC(C)C)c3ccc(C(=O)NCCC(=O)O)cc3)nc2cc1C :: 15

query: inhibition of GCG-mediated increases in blood glucose vs vehicle lookup needed for `Cc1cc2c(cnn2[C@@H](CC(C)C)c2ccc(C(=O)NCCC(=O)O)cc2)cc1-c1ccc(C(F)(F)F)cc1Cl` , thanks.
result: 23.9

query: inhibition of GCG-mediated increases in blood glucose vs vehicle lookup needed for `Cc1cc(C(F)(F)F)ccc1-c1cc2cnn([C@@H](CC(C)C)c3ccc(C(=O)NCCC(=O)O)cc3)c2cc1C` , thanks.
result: 17.1

query: inhibition of GCG-mediated increases in blood glucose vs vehicle lookup needed for `Cc1c(-c2ccc(C(F)(F)F)cc2Cl)ccc2nn([C@@H](CC(C)C)c3ccc(C(=O)NCCC(=O)O)cc3)cc12` , thanks.
result: 28.9

###

TARGET ENTITY: human GCGR (Homo sapiens, UniProt P47871)
ASSAY INFO: Cellular functional assay, cAMP readout (glucagon-stimulated cAMP, LANCE TR-FRET)
ASSAY SETUP: HEK293 cells stably expressing full-length human GCGR; glucagon 100 pM; IC50 converted to Ki; read-out: Inhibition of cAMP Ki
OBSERVABLE: Ki (nM)

Example cases with answers are listed next.
O=C(O)CCNC(=O)c1ccc(C(CCC(F)(F)F)n2cc3cc(-c4ccc(Cl)cc4Cl)ccc3n2)cc1 (centres unmarked) :: 110
O=C(O)CCNC(=O)c1ccc(C(CC2CC2)n2cc3cc(-c4ccc(C(F)(F)F)cc4)ccc3n2)cc1 (centres unmarked) :: 200
O=C(O)CCNC(=O)c1ccc(C(CC2CCC2)n2ncc3cc(-c4ccc(C(F)(F)F)cc4)ccc32)cn1 (centres unmarked) :: 650

1. CCOc1c(-c2ccc(C)cc2C)ccc2nn(C(CC(C)C)c3ccc(C(=O)NCCC(=O)O)nc3)cc12 (centres unmarked)
2. Cc1cc2c(cnn2C(CC(C)C)c2ccc(C(=O)NCCC(=O)O)cc2)cc1-c1cc2cc(F)ccc2s1 (centres unmarked)
query: In the pair 1 and 2 , the larger recorded Ki belongs to which? Identify your selection by its label.
result: 2

A. Cc1c(-c2ccc(C(C)(C)C)cc2)ccc2nn(C(CC(C)C)c3ccc(C(=O)NCCC(=O)O)cc3)cc12 (centres unmarked)
B. Cc1cc2nn(C(CC(C)C)c3ccc(C(=O)NCCC(=O)O)nc3)cc2cc1-c1ccc(C(F)(F)F)cc1Cl (centres unmarked)
C. O=C(O)CCNC(=O)c1ccc(C(CCCC(F)(F)F)n2ncc3cc(-c4ccc(C(F)(F)F)cc4)ccc32)cc1 (centres unmarked)
query: Rank items: key Ki, increasing. Arrange the labels as the request states and list them.
result: A, B, C

1. CC(C)CC(c1ccc(C(=O)NCCC(=O)O)cc1)n1ncc2cc(-c3ccc(C(F)(F)F)cc3Cl)ccc21 (centres unmarked)
2. CC(C)CC(c1ccc(C(=O)NCCC(=O)O)cc1)n1ncc2cc(-c3ccc(F)cc3)ccc21 (centres unmarked)
query: In the pair 1 and 2 , the larger recorded Ki belongs to which? Identify your selection by its label.
result: 2
(2: 600 nM, 1: 86 nM)

1. CCCCCC(c1ccc(C(=O)NCCC(=O)O)cc1)n1cc2cc(-c3ccc(C(C)(C)C)cc3)ccc2n1 (centres unmarked)
2. Cc1c(-c2ccc(C(F)(F)F)cc2Cl)ccc2c1cnn2C(CC(C)C)c1ccc(C(=O)NCCC(=O)O)cc1 (centres unmarked)
query: In the pair 1 and 2 , the larger recorded Ki belongs to which? Identify your selection by its label.
result: 1
(1: 245 nM, 2: 115 nM)

1. CC(C)CC(c1ccc(C(=O)NCCC(=O)O)cc1)n1ncc2cc(-c3ccc4ccccc4c3)ccc21 (centres unmarked)
2. O=C(O)CCNC(=O)c1ccc(C(CCC(F)(F)F)n2cc3cc(-c4cc5ccccc5s4)ccc3n2)cc1 (centres unmarked)
query: In the pair 1 and 2 , the larger recorded Ki belongs to which? Identify your selection by its label.
result: 1
